procedure details: yeast display, Sf9 membrane polyspecificity reagent, FACS + sequencing; frameworks hold sequencing errors
property: polyreactivity (PSR sort gate)

Example cases with answers are listed next.
| sequence content | polyreactivity (PSR sort gate) |
| --- | --- |
| QVQLVESGGGLVQAGGSLRLSCAASGIIFDSYAMGWYRQAPGKERELVAAITSDSGRTYYADSVKGRFTISRDNAKNTVYLHMNSLKPEDTAVYYCNADAYTYPTARYYWGQGTQVTVSS | low polyreactivity |
| QVQLVESGGGLVQAGGSLRLSCAASGSTLRRYAMGWYRQAPGKEMELVAAISGSGDSTYYADSVKGRFTISRDNAKNTVYLQMNSLKPEDTAVYYCNAVYAFNGYDYWGQGTQVTVSS | low polyreactivity |
| QVQLVESGGGLVQAGGSLRLSCAASGFIFRYYAMGWYRQAPGKERELVAAISGSGGGTYYADSVKGRFTISRDNAKNTVYLQMNSLKPEDTAVYYCAAGSTSGYFRYYYWGQGSQVTVSS | high polyreactivity |
| QVQLVESGGGLVQAGGSLRLSCAASGIGHNAMGWYRQAPGKERELVAAISSSGGRTYYADSVKGRFTISRDNAKNTVYLQMNSLKPEDTAVYYCARRAVYGIFDYWGQGTQVTVSS | high polyreactivity |
| QVQLVESGGGLVQAGGSLRLSCAASGSIFFSNAMGWYRQAPGKERELVAAITSTGGSTYYADSVKGRFTISRDNAKNTVDLQMNSLKPEDTAVYYCAAASRRGYYYWGQGTQVTVSS | high polyreactivity |
| QVQLVESGGGLVQAGGSLRLSCAASGIIFQPYAMGWYRQAPGKERELVAAITYSGDGTFYADSVKGRFTISRDNAKNTVYLQMNSLKPEDTAVYYCAAYPRDPYKEYDYWGQGTQVTVSS | low polyreactivity |

# input Which polyreactivity (PSR sort gate) is listed for QVQLVESGGGVVQAGGSLRLSCAASGRTFYRYAMGWYRQAPGKERELDAAISWRGGSTRYADSVKGRFTISRDNAKNTVYFQMNSLKPEDTAVYSCATRSTYWGWSSYGMDHWGQGTQVTVSS ?
# output high polyreactivity

# input Which polyreactivity (PSR sort gate) is listed for QVQLVESGGGLVQAGGSLRLSFAASGFIIGRNAMGWYRQAPGKEREMVAAITSGGNTYYADSVKGRFTISRDNAKNTVYLQMNSLKPEDTAVYYCAARRRYPLVDAGYYWGQGTQVTVSS ?
# output high polyreactivity

* * *

procedure details: yeast display, Sf9 membrane polyspecificity reagent, FACS + sequencing; frameworks hold sequencing errors
property: polyreactivity (PSR sort gate)

| sequence content | property | val |
| --- | --- | --- |
| QVQLVESGGRLVQAGGSLRLSGAASGFTFGRNAKGWYRPAPGKERELVASIDWSGGSTYYADSVKGRFTISRDNAKNTFFLQMNSLKPEETAVYYCAVGPNSVGNRSYGFDYWGQGTQVTVSS | polyreactivity (PSR sort gate) | low polyreactivity |
| QVQLVESGGGLVQAGGSLRLSCAASGSTIDINTKGWYRQAPGKEREFVAAITDSDDSTYYADSVKGRFTISRDNAKNTVYLQMNSLKPEDTAVYYCATDPDYVLYRTAYYEYDYWGQGTQVTVSS | polyreactivity (PSR sort gate) | low polyreactivity |

* * *

procedure details: yeast display, Sf9 membrane polyspecificity reagent, FACS + sequencing; frameworks hold sequencing errors
property: polyreactivity (PSR sort gate)

Example cases with answers are listed next.
| sequence content | polyreactivity (PSR sort gate) |
| --- | --- |
| QVQLVDSGGGLVQAGGSLSLSCAASGSTFVVNAMGWYRQAPGKERELVAAITQSGGSTFYADSVKGRFTISRDNAKNTVYLQMNSLKPEDTAVYYWGQGTQVTVSS | low polyreactivity |
| QVQLVESGGGLVQAGGSLRLSCAASGFTFIYNAMGWYRQAPGKERELVAAISYRTSRTYYADSVKGRFTISRDNAKNTVYLQMNSLKPEDTAVYYCAKGYGRHGLDYWGQGTQVTVSS | high polyreactivity |
| QVQLVESGGGLVQAGGSLRLSCAASGSILSSYAMGWYRQAPGKERELVAAISYTGDSTYYADSVKGRFTISRDNAKNTVYLQMNSLKPEDTAVYYCAAELLPPYYYRWLEYWGQGTQVTVSS | low polyreactivity |
| QVQLEDSGGGLVQAGGSLRLSCAASGFNFYYNAMGWYRKAPGKERELVAAISWSDGGTYYADSVKGRFTISRDNAKNTVYLQMNSLKPEDTAFYYCAADFRLRAYYPGYEYWGQGTQVTVSS | low polyreactivity |
| QVQLVESGGGLVQAGGSLRLSCAASGSIFVYNAMGWYRKATGKERELVAGITFIGGSTYYADSVKGRFTISRDNAKNTVYLQMNSLKPEDTAVYYCNADVAPGIFYGYDSWGQGTQVTVSS | low polyreactivity |
| QVQLVESGGGLVQAGGSLRLSCAASGRTFVIYAMGWYRQAPGKEREFVAAISRSGGSTYYADSVKGRFTISRDNAKNTVYLQMNSLKPEDTAVYYCNTRTPYWVKSDYWGQGTQVTVSS | low polyreactivity |

# input Which polyreactivity (PSR sort gate) is listed for QVQLVESGGGIVQAGGSLRLSCAASARIFGYNAMGWYRQAPGKERELVADITGSGGSTYYADSVKGRFTISRDNAKNTVYLQMNSLKPEDTAVYYCATPYAVYHVEYGYWGQGTQVTVSS ?
# output low polyreactivity

# input Which polyreactivity (PSR sort gate) is listed for QVQLVESCGGLVQAGGSLRLSCAASGLTFYQNDMGWYRQAPGKERELVAAITLSGDITYYADSVKGRFTISRDNAKNTVYLQMNSLKPEDTAVYYCAADGYLLYVQHPNGRRYDYWGQGTQVTVSS ?
# output low polyreactivity

# input Which polyreactivity (PSR sort gate) is listed for QVQLVESGGGLVQAGGSLRLSCAASGSTFTANAMGWYRQAPGKERELVAAITNSDGSTYYADSVKGRFTISRDNAKNTVYLQMNSLKPEETAVYYCAKDYYACYWEMDYWGLGTQVTVSS ?
# output low polyreactivity

# input Which polyreactivity (PSR sort gate) is listed for QVQLVESGGGLVQAGGSLRLSCAASGRIFKNNAMGWYRQAPGKEREFVAAISSIGGRTYYADSVKGRFTISRDNAKHTVYLQMNSLKPEDTAVYYCAARGYTGGLWYDYWGQRTQVTVSS ?
# output high polyreactivity

# input Which polyreactivity (PSR sort gate) is listed for QVQLVESGGGLVQAGGSLRLSCAASGSTFSQYAMGWYRQAPGKERELVAAITTSDGSTNYADSVKGRFTISRDNAKNTVYLQMNSLKPEDTAVYYCNTEYFYYSFGYWGQGTQVTVSS ?
# output low polyreactivity

* * *

procedure details: yeast display, Sf9 membrane polyspecificity reagent, FACS + sequencing; frameworks hold sequencing errors
property: polyreactivity (PSR sort gate)

Example cases with answers are listed next.
| sequence content | polyreactivity (PSR sort gate) |
| --- | --- |
| QVQLVESGGGLVQAGGSLRLSCAASGSTFPAYAMGWYRQAPGKERELVATITYTGGSTYYADSVKGRFTISRDNAKNTVYLQMNSLKPEDTAVYYCAADRWDQEDEFDYWGQGTQVTVSS | low polyreactivity |
| QVQLVESGGGLVQAGGSLRLSCAASGRSFEVYVMGWYRQAPGKERELVAAISTGGSTYYADSVKGRFTISRDNAKNTVYLQMNSLKPEDTAVYYCAAKRTGNGYPRSGYSRYEYWGQGTQVTVSS | high polyreactivity |
| QVQLVESGGGLVQAGGSLRLTCAASGFIFYSYAMGWYRQAPGKERELVAAISTSGGSTYYADSVKGRFTISRDNAKNTVYLQMNSLKPEDTAVYYCAVGRKFGRYRVPFVVPYEYWGQGTQVTVSS | high polyreactivity |
| QVQLVESGGGLVQAGGSLRLSCAASGRTFPRNGMGWYRQAPGKERELGAGISSAGSTNYADSVKGRFTISRDNAKNTFYLHMNSLKPEDTAVYYCNAVLRRRWVTFYYWGQGTQVTVSS | high polyreactivity |
| QVQLVETGGGLVQAGGSLRLSCAASGRTFVYNGMGWYRQAPGKERELVAAISGSGGSTYYADSVKGRFTISRDNAKNTVYLQMNSLKPEDTAVYYCATRQGYRLYYWGQGTQVTVSS | high polyreactivity |
| QVQLVESVGGLVQAGGSLRLSCAASGSIFRAYAMGWYRQAPGKERELVAAISRSGDSTYYADSVKGRFTISRDNAKNTVYLQMNSLKPEDTADYYCAAQRKPYVRPSGPYKRRDYWGQGTQVTVSS | high polyreactivity |

# input Which polyreactivity (PSR sort gate) is listed for QVQLVESGGGLVQAGGSLRLSCAASGYTFNWYAMGWYRQAPGKERELVAAISWRSGRTYYADSVKGRFTISRDNAKNTVYLQMNSLKPEDTAVYYCAVTTTSGAPGGSYYYWGQGTQVTVSS ?
# output high polyreactivity

# input Which polyreactivity (PSR sort gate) is listed for QVQLVESGGGLVQAGGSLRLSCAASGSILYIYAMGWYRQAPGKERELVASINSGGSTYYADSVKGRFTISRDNAKNTVYLHMYSLKPEDTGVYYCAKQGVDYWGQGTQVTVSS ?
# output low polyreactivity

# input Which polyreactivity (PSR sort gate) is listed for QVQLVESGGGLVQAGGSLRLSCAASGSTFRGYVMGWYRQAPGKERELVAAISRGGGSTYYADSVKGRFTISRDNAKNTVYLQMNSLKPEDTAVYYCATDYSGRQPGKYGYWGQGTQVTVSS ?
# output high polyreactivity

# input Which polyreactivity (PSR sort gate) is listed for QVQLVESGVGLVQAGGSLRLSCAASGLIFYHNAMGWYRQAPGKERELVAAISRSGGRTYYADSVKGRFTISRDNAKNTVYLQMNSLKPEDSAVYYCAVYRSSDFDYWGQGTQVTVSS ?
# output high polyreactivity

# input Which polyreactivity (PSR sort gate) is listed for QVQLVESGGGLVQAGGSLRLSCAASGSTFYNNAMGWYRQAPGKEREFVAAITLSGGRTYYADSVKGRFTISRDNAMNTVYLQMNSLKPEDTAVYYCAAKGTRRGKERNYWGQGTQVTVSS ?
# output high polyreactivity
